Measured values drawn from patent US20240270821A1 for this set.

biological target: hGLP-1R (Homo sapiens, UniProt P43220); assay: cell-based or functional assay
Sequence (P43220 24-463): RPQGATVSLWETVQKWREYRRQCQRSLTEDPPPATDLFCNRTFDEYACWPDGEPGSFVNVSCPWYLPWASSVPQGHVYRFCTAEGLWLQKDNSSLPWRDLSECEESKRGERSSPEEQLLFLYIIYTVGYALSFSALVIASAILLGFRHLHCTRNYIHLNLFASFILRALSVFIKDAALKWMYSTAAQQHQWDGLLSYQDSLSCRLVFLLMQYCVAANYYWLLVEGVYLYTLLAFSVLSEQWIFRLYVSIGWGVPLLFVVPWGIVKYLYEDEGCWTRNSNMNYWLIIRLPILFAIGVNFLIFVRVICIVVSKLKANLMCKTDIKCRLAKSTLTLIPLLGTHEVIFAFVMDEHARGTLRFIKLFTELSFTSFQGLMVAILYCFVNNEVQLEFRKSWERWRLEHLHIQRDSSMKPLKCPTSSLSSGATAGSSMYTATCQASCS
Starred links: 1 amine or outer side, 2 acyl side, 3 side chain; linkers in the order of their positions; H or OH if unused. Non-standard residues stand in square brackets, D forms with d. Groups on a side chain read outwards from the residue. No end group written: not given here. *: point of attachment. C20 diacid = O=C(O)CCCCCCCCCCCCCCCCCCC(=O)*; Phe(4-CN) = N#Cc1ccc(C[C@H](N)C(=O)O)cc1; αMePhe(2-F) = C[C@](N)(Cc1ccccc1F)C(=O)O; γGlu = O=C(O)[C@H](CCC(=O)[*:2])N[*:1]; AEEA = NCCOCCOCC(=O)O; Aib = CC(C)(N)C(=O)O
Everything with cAMP Rel EC50, nM (1% HSA) lower than 300 nM is Not met; everything else, including exactly 300 nM, is Met.

Binder	Discrete label
YXQGTFTSDFSKXLDKKAQXAFIEYLLEGGESSGAPPPSGS (synthetic construct; SITE 2: note = 2-Aminoisobutyric Acid; SITE 13: note = alpha-methyl-leucine; SITE 17: note = Lysine is chemically modified through conjugation of the epsilon-amino group of the Lysine side chain with (2-[2-(2-Amino-ethoxy)-ethoxy]-acetyl)2-(gamma-Glu)-CO-(CH2 )16-CO2H; SITE 20:) [Example 147]	Met
YXQGTFTSDFSXXLDKKAQXAFIEYLLEAGPSSGEPPPSGQ (ornithine at residue 12; synthetic construct; SITE 2: note = 2-Aminoisobutyric Acid; SITE 12: note = L-ornithine; SITE 13: note = alpha-methyl-leucine; SITE 17: note = Lysine is chemically modified through conjugation of the epsilon-amino group of the Lysine side chain with (2-[2-(2-Amino-ethoxy)-ethoxy]-acetyl)2-(gamma-Glu)) [Example 157]	Met
YXQGTXTSDYSIXLDKKAQXAFIEYLEEGGPSSGAPPPSE (synthetic construct; SITE 2: note = 2-Aminoisobutyric Acid; SITE 6: note = alpha-methyl-2-fluoro-L-phenylalanine; SITE 13: note = alpha-methyl-leucine; SITE 17: note = Lysine is chemically modified through conjugation of the epsilon-amino group of the Lysine side chain with (2-[2-(2-Amino-ethoxy)-et)) [Example 424]	Not met
YXQGTXTSDXXIXLEXKAQXEFIEXLVEGGPSSGAPPPSGS (synthetic construct; SITE 2: note = 2-Aminoisobutyric Acid; SITE 6: note = alpha-methyl-2-fluoro-L-phenylalanine; SITE 10: note = 3-(4-Pyridyl)-L-alanine; SITE 11: note = alpha-methyl-L-serine; SITE 13: note = alpha-methyl-leucine; SITE 16: note = L-ornithine; SITE 17: note = Lysine is chemically mo) [Example 768]	Not met
YXQGTFTSDXSQXLDXKAQXAFIEXLIEGGPSSGEPPPSGSEE (Aib, 4Pal, αMeL, Orn, Me4Pal, αMeY; lipidated Lys; C-terminal amide; synthetic construct; SITE 2: note = 2-Aminoisobutyric Acid; SITE 10: note = 3-(4-Pyridyl)-L-alanine; SITE 13: note = alpha-methyl-leucine; SITE 16: note = L-ornithine; SITE 17: note = Lysine is chemically modified through conjugation of the epsilon-amino group of the Lysine side chain with (gamma-Gl)) [Example 1027]	Not met
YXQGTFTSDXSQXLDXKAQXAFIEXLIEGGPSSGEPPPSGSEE (non-natural residues; lysine acylated with C18 diacid; C-terminal amide; synthetic construct; SITE 2: note = 2-Aminoisobutyric Acid; SITE 10: note = 3-(4-Pyridyl)-L-alanine; SITE 13: note = alpha-methyl-leucine; SITE 16: note = L-ornithine; SITE 17: note = Lysine is chemically modified through conjugation of the epsilon-amino group of the Lysine side chain with (gamma-Gl)) [Example 1028]	Met
YXQGTFTSDFSXXLDKKAQXAFIEYLLEXGPSSGEPPPEGS (synthetic construct; SITE 2: note = 2-Aminoisobutyric Acid; SITE 12: note = L-ornithine; SITE 13: note = alpha-methyl-leucine; SITE 17: note = Lysine is chemically modified through conjugation of the epsilon-amino group of the Lysine side chain with (2-[2-(2-Amino-ethoxy)-ethoxy]-acetyl)2-(gamma-Glu)) [Example 195]	Met
YXQGTFTSDXSXXLDKKAQXAFIEXLIAGGPSSGEPPPSGS (Aib, 4Pal, Orn, αMeL, Me4Pal, αMeY; γGlu2-C18 diacid Lys; amide; synthetic construct; SITE 2: note = 2-Aminoisobutyric Acid; SITE 10: note = 3-(4-Pyridyl)-L-alanine; SITE 12: note = L-ornithine; SITE 13: note = alpha-methyl-leucine; SITE 17: note = Lysine is chemically modified through conjugation of the epsilon-amino group of the Lysine side chain with (gamma-Gl)) [Example 1014]	Not met
Y[Aib]QGT[αMePhe(2-F)]TSD[Phe(4-CN)]SKLLDKIAQK([AEEA-γGlu-C20 diacid])AFIEYLIEGGPSSGEPPPSGS-NH2 [Example 364]	Not met
Y[Aib]QGT[αMePhe(2-F)]TSDYSKLLDKIAQKAFIEYLIEGGPSSGAPPPSGE-NH2 (not fully specified (residue 20)) [Example 356]	Not met
YXQGTFTSDXSXXLDXKAQXEFIEXLLAGGPSSGAPPPSGSEE (acylated lysine (γ-Glu)2 C18 diacid; non-natural residues; C-terminal amide; synthetic construct; SITE 2: note = 2-Aminoisobutyric Acid; SITE 10: note = 3-(4-Pyridyl)-L-alanine; SITE 12: note = L-ornithine; SITE 13: note = alpha-methyl-leucine; SITE 16: note = L-ornithine; SITE 17: note = Lysine is chemically modified through conjugation of the epsilon-amino group of the Lys) [Example 996]	Met
